Experiment: Single and multiple-dose open safety and tolerability study, pharmacokinetics of pemirolast potassium tablets in humans
Format: in vivo, human
Conditions: human, plasma; 50 mg pemirolast potassium (42.5 mg free acid) oral b.i.d., multiple dose, healthy male subjects, N = 6
Quantity Measured: Cmax (ng/mL)
One number for each entry, in ng/mL.

Cmax for Cc1cccn2c(=O)c(-c3nnn[nH]3)cnc12 [pemirolast potassium] is 3420

----------
Experiment: Later pharmacokinetic studies in healthy volunteers, multiple doses b.i.d. for three and a half days
Assay type: in vivo, human
Details: human, plasma, oral, 320 mg b.i.d. for three and a half days, read-out: Actual Cmax
Quantity Measured: Cmax (µg/mL)
One number for each entry, in µg/mL.

Recorded Cmax (compound Cc1cccn2c(=O)c(-c3nnn[nH]3)cnc12 ): 51

----------
Assay: Later pharmacokinetic studies in healthy volunteers, multiple doses b.i.d. for three and a half days
Format: in vivo, human
Conditions: human, plasma, oral, 80 mg b.i.d. for three and a half days, read-out: Actual Cmax
Quantity Measured: Cmax

Measured Cmax of Cc1cccn2c(=O)c(-c3nnn[nH]3)cnc12 [pemirolast] : 8.84 µg/mL

----------
Assay: Clinical trial: plasma pemirolast concentration by LC-MS/MS
Type: in vivo
Conditions: human, 40 and 400 mg single oral doses, asthma patients
Quantity Measured: half-life

Query Cc1cccn2c(=O)c(-c3nnn[nH]3)cnc12 [pemirolast] yields half-life of 4 to 7 h

----------
Test: Single and multiple-dose open safety and tolerability study, pharmacokinetics of pemirolast potassium tablets in humans
Assay type: in vivo, human
Settings: human, plasma; 30 mg pemirolast potassium (25.5 mg free acid) oral b.i.d., multiple dose, healthy male subjects, N = 6
Quantity Measured: Cmax (ng/mL)
Give bare numbers, in ng/mL.

Cmax reported for this compound Cc1cccn2c(=O)c(-c3nnn[nH]3)cnc12 [pemirolast potassium] : 2040

----------
Experiment: Single and multiple-dose open safety and tolerability study, pharmacokinetics of pemirolast potassium tablets in humans
Type: in vivo, human
Details: human, plasma; 10 mg pemirolast potassium (8.5 mg free acid) oral b.i.d., multiple dose, healthy male subjects, N = 6
Quantity Measured: Cmax (ng/mL)
Numbers only, in ng/mL.

// recorded Cmax for Cc1cccn2c(=O)c(-c3nnn[nH]3)cnc12 : 730

----------
Test: Toxicokinetics of pemirolast in the dog, 7-day oral repeated dose
Design: species or system dog (Beagles)
Conditions: Beagle, in vivo, 75 mg/kg daily oral, 7th day, female dogs (n = 3)
Description: There were no major differences in kinetics between males and females.
Quantity Measured: Cmax (µg/mL)
One number for each entry, in µg/mL.

Entry Cc1cccn2c(=O)c(-c3nnn[nH]3)cnc12 ; Cmax = 150

----------
Test: Toxicokinetics of pemirolast in the dog, 7-day oral repeated dose
Set-up: species or system dog (Beagles)
Conditions: Beagle, in vivo, 75 mg/kg daily oral, 7th day, male dogs (n = 3)
Quantity Measured: Cmax (µg/mL)
Give bare numbers, in µg/mL.

The compound listed as Cc1cccn2c(=O)c(-c3nnn[nH]3)cnc12 [pemirolast potassium] shows Cmax equal to 168
